target: 3-hydroxyacyl-CoA dehydrogenase type-2 (Homo sapiens) (UniProt Q99714); experiment: qHTS Assay for Inhibitors of HSD17B4, hydroxysteroid (17-beta) dehydrogenase 4; conditions: recombinant HSD17B10, NADH fluorescence kinetic; series mostly up to 57.1 µM;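 further: the protocol describes HADH2 (HSD17B10) and not the HSD17B4 of the title; nearly all actives have a fitted effect of over 70% in size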
In all, about 75,000 compounds went through this assay and about 5,700 (7.6%) were called active. About 7% were inconclusive and are not listed. The call rests on the fitted dose curve; in most records, active means well fitted inhibition curve with a large enough effect; inconclusive means small, poorly fitted or top-dose-only effect; inactive means no such curve, though single readings can be large or run the other way. The list comes from a sample in which actives are over-represented; it also holds close analogues and randomly drawn compounds.
Can you answer with just one of these options? t (active), f (inactive)

Lookup: Called result for O=C(OCc1nnc(-c2ccccc2)o1)c1ccc2c(c1)C(=O)N(CCc1ccccc1)C2=O
Found: f

Lookup: Hi, sorry to bother you, what did the test record for O=C1Nc2c(Br)cc(Br)cc2C1(O)N1CCOCC1 (stereo unspecified) ?
Found: f

Lookup: Please let me know the test result on file for Cc1cccc(OCc2nnc(SCn3nnc4ccccc4c3=O)o2)c1 .
Found: f

Lookup: Returns: the outcome recorded for CC(C)c1nc2oc3c(N4CCN(C)CC4)ncnc3c2c2c1CCC2 in this assay.
Found: f

Lookup: Test call for this molecule, please: Cc1cc(C)cc(OCc2nnc(SCC(=O)Nc3ccccc3)o2)c1
Found: f

Lookup: Query: recorded result category for CCNC(=O)N1CCNC(=O)C1CC(=O)Nc1ccc(C(=O)OCC)cc1 (stereo unspecified) in this test
Found: f

Lookup: Please share the test call associated with O=C(CSc1nnc(-c2ccccc2)o1)N1CCOCC1 .
Found: f

Lookup: Just curious, what result did O=c1oc2cc(O)ccc2cc1-c1ccc(F)cc1 get here?
Found: f

Lookup: Name the outcome recorded for COc1ccc(-c2cc3ccc(OCc4nn[nH]n4)cc3oc2=O)cc1 in the assay.
Found: t

Lookup: Outcome logged for CC1C(O)CC2C(C(=O)O)=CO[C@@H](O[C@H]3OC(CO)C(O)C(O)C3O)C21 (stereo partly specified) in this assay:
Found: f

Lookup: Each molecule tested received a call. Report the one for O=C(O)C1C2C=CC(C2)C1C(=O)N1CCN(CCO)CC1 (stereo unspecified) .
Found: f

All figures here come from PubChem BioAssay AID893.
